assay.info: small-molecule microarray binders of probe aDKK1, primary screen, biochemical, biotinylated probe, 635/667 nm fluorescence (AID 1099);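 further: score merges 667nm spot fluorescence with signal to noise across triplicate slides; reference of the scale not given here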
assay.context: higher = more signal

structure: C=CC[C@@H]1C=C[C@H](ON=C(C)CCC(=O)OC[C@H]2O[C@H](C#Cc3ccccc3)C=C[C@@H]2Oc2ccc(C)cc2)[C@@H](CO)O1
composite z-score: -0.0927
//
structure: Cn1c(=O)n2n(c1=O)[C@H]1[C@H](O)[C@@H]3O[C@@H]3C(=NOCc3ccccc3)[C@H]1CC2
composite z-score: -0.263
//
structure: CC(C)=CCCC(C)=CCON=C1C[C@@H](O)[C@@H](O)[C@@H]2[C@@H]3C(=O)N(c4cccc(Oc5ccccc5)c4)C(=O)[C@@H]3CC[C@@H]12
composite z-score: 0.132
//
structure: C=CC[C@@H]1C=C[C@H](ON=C[C@@H](C)[C@H](OCc2ccccc2)C(C)C)[C@@H](CO)O1
composite z-score: -0.5

----------
Tested on: glycogen synthase kinase-3 (GSK3A per assay name; protocol says GSK3B)
assay.info: GSK3 binders on small-molecule microarrays, primary screen, biochemical, small-molecule microarray, 635 nm fluorescence, GSK3A (AID 1103); further: the record names both GSK3A and GSK3B
assay.context: small-molecule microarray binding, fluorescence 635 nm; higher = more signal
Measured composite z-score by item

molecule: COc1ccc(O[C@@H]2[C@H](O)CO[C@@H]2C=Cc2ccccc2)cc1
composite z-score: -0.0208
--
molecule: COC(=O)CC=C[C@@H](C)[C@@H](C=NOC(C)CN1CCCc2nc(C)c(C)cc21)OC (some centres undefined)
composite z-score: 0.522
--
molecule: CC(C)=NOC[C@@H](C)[C@H](OCc1ccccc1)C(C)C
composite z-score: -1.06
--
molecule: COC(=O)CC=C[C@@H](C)[C@@H]1C=C[C@H](O)[C@@H](CO)O1
composite z-score: 0.753
--
molecule: CCN1C(=O)[C@H]2[C@H]3[C@H](O)[C@H](O)CC(=NOCC(C)C)[C@@H]3CC[C@H]2C1=O
composite z-score: 1.24
--
molecule: COC(=O)[C@H](C)NC(=O)CCC1CC(OC(=O)NCc2ccc3c(c2)OCO3)CC2(CCCC(COC(=O)NCC(c3ccccc3)c3ccccc3)O2)O1 (some centres undefined)
composite z-score: 0.653
--
molecule: COC(=O)CC=C[C@@H](C)[C@@H](C=NOC[C@H]1O[C@H](c2ccccc2)C=C[C@@H]1Oc1ccc(OC)cc1)OC
composite z-score: -0.393
--
molecule: COC(=O)NCC=Cc1nc(CCCO)co1
composite z-score: 0.926
--
molecule: CC(CCN1CCCc2nc(C)c(C)cc21)=NOC(C)CN1CCCCc2nc(C)c(C)cc21 (centres undefined)
composite z-score: 1.28
--
molecule: CC(C)=CCCC(C)=CCON=C1C[C@@H](O)[C@@H](O)[C@@H]2[C@@H]3C(=O)N(Cc4ccccc4)C(=O)[C@@H]3CC[C@@H]12
composite z-score: 0.279
--
molecule: Cc1ccc(S(=O)(=O)N[C@@H]2COC(=O)[C@@H](C)COC(=O)CC=C[C@H]2C)cc1
composite z-score: 0.513
--
molecule: COC(=O)CC=C[C@@H](C)[C@@H](C=NO[C@@H]1O[C@H](COC(C)=O)[C@@H](OC(C)=O)[C@H](OC(C)=O)[C@H]1OC(C)=O)NS(=O)(=O)c1ccc(C)cc1
composite z-score: -0.448
--
molecule: CC(CCN1CCCCc2nc(C)c(C)cc21)=NOC[C@@H](C)[C@H](OCc1ccccc1)C(C)C
composite z-score: -1.03
--
molecule: O=C1C[C@@H](O)[C@@H](O)[C@@H]2[C@@H]3C(=O)N(Cc4ccc5c(c4)OCO5)C(=O)[C@@H]3CC[C@H]12
composite z-score: 0.7
